Molecular target: Sodium channel protein type 10 subunit alpha (Homo sapiens, UniProt Q9Y5Y9)
Sequence (Q9Y5Y9 whole entry): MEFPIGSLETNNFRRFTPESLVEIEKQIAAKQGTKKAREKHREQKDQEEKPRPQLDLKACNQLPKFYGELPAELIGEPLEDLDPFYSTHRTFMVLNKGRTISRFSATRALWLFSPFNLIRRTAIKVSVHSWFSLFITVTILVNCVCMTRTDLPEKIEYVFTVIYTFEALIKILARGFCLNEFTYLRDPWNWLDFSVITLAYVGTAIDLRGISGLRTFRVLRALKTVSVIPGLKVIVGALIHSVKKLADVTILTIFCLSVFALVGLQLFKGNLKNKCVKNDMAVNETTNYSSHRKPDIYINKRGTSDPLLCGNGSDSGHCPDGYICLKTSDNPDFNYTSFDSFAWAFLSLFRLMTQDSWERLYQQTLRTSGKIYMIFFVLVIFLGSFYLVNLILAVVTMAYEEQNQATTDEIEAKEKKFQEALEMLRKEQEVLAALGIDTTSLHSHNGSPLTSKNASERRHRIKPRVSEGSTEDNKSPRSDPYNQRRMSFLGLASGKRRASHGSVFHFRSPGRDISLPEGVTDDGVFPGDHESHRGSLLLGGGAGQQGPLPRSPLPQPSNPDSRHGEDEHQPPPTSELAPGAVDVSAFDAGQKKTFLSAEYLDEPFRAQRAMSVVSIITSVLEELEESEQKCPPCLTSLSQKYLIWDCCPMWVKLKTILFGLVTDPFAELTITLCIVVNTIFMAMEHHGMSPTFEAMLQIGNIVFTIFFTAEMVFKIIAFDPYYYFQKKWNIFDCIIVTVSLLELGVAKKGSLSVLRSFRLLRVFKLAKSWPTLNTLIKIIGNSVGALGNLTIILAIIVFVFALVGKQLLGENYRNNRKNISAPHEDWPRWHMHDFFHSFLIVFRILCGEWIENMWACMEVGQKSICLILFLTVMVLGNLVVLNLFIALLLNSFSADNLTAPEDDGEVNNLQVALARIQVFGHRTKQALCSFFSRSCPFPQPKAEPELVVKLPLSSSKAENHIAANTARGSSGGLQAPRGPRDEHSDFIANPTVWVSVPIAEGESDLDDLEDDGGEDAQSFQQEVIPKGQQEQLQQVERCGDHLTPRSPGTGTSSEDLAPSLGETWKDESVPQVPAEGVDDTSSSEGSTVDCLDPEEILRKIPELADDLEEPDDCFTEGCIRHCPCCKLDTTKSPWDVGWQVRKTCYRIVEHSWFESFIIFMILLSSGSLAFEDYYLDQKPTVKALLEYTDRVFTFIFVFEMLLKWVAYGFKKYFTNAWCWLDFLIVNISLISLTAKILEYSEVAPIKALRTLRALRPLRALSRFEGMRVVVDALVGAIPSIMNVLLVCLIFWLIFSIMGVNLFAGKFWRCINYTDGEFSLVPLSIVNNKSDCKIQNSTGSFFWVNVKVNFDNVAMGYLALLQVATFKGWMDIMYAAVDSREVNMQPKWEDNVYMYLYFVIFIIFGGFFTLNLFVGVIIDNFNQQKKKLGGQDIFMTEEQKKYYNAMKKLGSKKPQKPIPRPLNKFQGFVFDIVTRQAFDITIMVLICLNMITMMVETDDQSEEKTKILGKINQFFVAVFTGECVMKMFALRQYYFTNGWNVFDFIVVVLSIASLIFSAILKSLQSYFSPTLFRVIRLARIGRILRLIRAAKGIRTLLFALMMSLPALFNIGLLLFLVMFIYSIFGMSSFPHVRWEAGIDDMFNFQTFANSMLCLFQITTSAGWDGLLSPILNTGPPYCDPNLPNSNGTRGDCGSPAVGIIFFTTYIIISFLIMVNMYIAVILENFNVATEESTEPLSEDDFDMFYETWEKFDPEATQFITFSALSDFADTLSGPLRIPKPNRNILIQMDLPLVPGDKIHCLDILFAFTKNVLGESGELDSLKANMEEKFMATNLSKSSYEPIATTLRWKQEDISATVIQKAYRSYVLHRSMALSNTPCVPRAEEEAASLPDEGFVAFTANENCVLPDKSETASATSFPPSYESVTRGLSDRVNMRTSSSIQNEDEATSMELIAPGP
Assay: In Vitro Assay (Protocol 1)
Description: Compounds of Formula (I), were diluted in eight concentrations in the extracellular solution composed of physiological saline, buffered with HEPES (mM): NaCl, 137; KCl, 4; CaCl2, 3.8; MgCl2, 1; HEPES, 10; Glucose, 10; pH 7.4. The […], 50; CsF, 90; MgCl2, 5; EGTA, 5; HEPES, 10; pH 7.2. […]
endpointLabel: pIC50
In textbook form, pIC50 equals minus log to base ten of the concentration in mol/L.

pIC50 reading for `COc1cc(/C=N/NC(=O)c2cccc(-c3ccc(Cl)cc3)n2)cc(OC)c1` : 5.86
